Please respond with reported koff for every item in the list.
target_desc: T1, recombinant human IL-12 (rhIL-12) (human, UniProt P29459 23-219; P29460 23-328)
T1 chain 1: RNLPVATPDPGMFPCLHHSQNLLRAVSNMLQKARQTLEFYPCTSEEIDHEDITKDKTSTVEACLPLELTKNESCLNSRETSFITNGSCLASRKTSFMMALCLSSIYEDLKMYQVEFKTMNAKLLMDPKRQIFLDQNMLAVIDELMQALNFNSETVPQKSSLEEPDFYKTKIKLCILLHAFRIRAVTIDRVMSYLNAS
T1 chain 2: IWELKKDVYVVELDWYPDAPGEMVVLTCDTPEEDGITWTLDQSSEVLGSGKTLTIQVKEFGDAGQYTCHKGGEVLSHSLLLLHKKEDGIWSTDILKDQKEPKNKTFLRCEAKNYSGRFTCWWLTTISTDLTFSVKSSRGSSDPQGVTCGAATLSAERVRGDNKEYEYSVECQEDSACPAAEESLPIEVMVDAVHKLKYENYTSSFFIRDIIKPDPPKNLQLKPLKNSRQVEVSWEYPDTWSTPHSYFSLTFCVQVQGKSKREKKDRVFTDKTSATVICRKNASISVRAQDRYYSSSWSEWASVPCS
assay_info: BIAcore
Report as a plain number; the unit s⁻¹ is understood.

Problem: Look up koff for this binder: QSYDRDTHPALL [Y61 L94 D]
Result: 0.000253

Problem: Give the measured koff of QSYDSGTHPALL [Y61 L93 S] .
Result: 0.000341

Problem: Which koff value belongs to QSYSRGTHPALL [Y61 L92 S] ?
Result: 0.000307
